Target: Corticotropin-releasing factor receptor 1 (Homo sapiens)
Sequence (P34998 whole entry): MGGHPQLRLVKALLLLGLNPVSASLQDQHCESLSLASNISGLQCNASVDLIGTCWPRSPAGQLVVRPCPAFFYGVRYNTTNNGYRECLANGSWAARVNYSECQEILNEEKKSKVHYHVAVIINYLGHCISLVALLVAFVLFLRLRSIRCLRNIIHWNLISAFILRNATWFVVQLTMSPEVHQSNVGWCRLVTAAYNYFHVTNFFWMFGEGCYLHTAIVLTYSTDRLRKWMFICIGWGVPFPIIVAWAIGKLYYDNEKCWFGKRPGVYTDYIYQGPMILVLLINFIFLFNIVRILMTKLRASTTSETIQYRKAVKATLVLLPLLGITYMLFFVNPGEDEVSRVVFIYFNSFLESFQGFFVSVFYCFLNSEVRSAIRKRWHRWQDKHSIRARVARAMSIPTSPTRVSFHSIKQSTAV
Assay: Antagonist activity at recombinant human CRF1 receptor expressed in CHO cells assessed as inhibition of CRF-induced cAMP formation
quantity_measured: pKi
The scale used: pKi is minus the common logarithm of the concentration in molar units.

In [3]: df
Out[3]:
                                        smi  assay_value
0  COCc1nc2c(NC(C3CC3)C3CC3)nc(C)nc2n1-c1ccc(OC)cc1         6.80
1  CCOc1ccc(-n2c(C)nc3c(NC(C4CC4)C4CC4)nc(C)nc32)cc1         7.70
2  Cc1nc(NC(C2CC2)C2CC2)c2nc(C)n(-c3ccc(C#N)cc3)c2n1         7.21
3  COc1ccc(-n2c(C)nc3c(NC(C4CC4)C4CC4)nc(C)nc32)c(Cl)c1         7.92

Quick one: pKi for COc1ccc(-n2c(C)nc3c(NC(C4CC4)C4CC4)nc(C)nc32)c(C)c1 ?
7.85

###

Tested on: Liver microsomes
Experiment: Intrinsic clearance in human liver microsomes assessed per mg of protein
Assay type: ADME, Microsome
Listed below: clearance values for each entry.
Write the number in µL/min/mg without appending the unit.

>>> print(df.to_string())
                                        smi  quantity_measured  measure_unit  assay_value
0  Cc1nc(NC(C2CC2)C2CC2)c2nc(C)n(-c3ccc(F)cc3)c2n1          clearance     µL/min/mg           15

Please provide the recorded clearance for Cc1nc(NC(C2CC2)C2CC2)c2nc(C)n(-c3ccc(OC(F)(F)F)cc3)c2n1 , tested on Liver microsomes.
17

###

Listed below: clearance values for each entry.
Tested on: Liver microsomes
Test: Intrinsic clearance in rat liver microsomes assessed per mg of protein
Type: ADME, Microsome
Write the number in µL/min/mg without appending the unit.

Below: 5 compounds and their reported clearance.
>>> print(df.to_string())
                                        smi  quantity_measured  measure_unit  assay_value
0  COc1ccc(-n2c(C)nc3c(NC(C4CC4)C4CC4)nc(C)nc32)cc1          clearance     µL/min/mg           20
1  CCCN(CCOC)c1nc(C)nc2c1c(C)nn2-c1ccc(OC)cc1C          clearance     µL/min/mg           23
2  COc1cc(OC(F)F)ccc1-n1c(C)nc2c(NC(C3CC3)C3CC3)nc(C)nc21          clearance     µL/min/mg           38
3  Cc1nc(NC(C2CC2)C2CC2)c2nc(C)n(-c3ccc(OC(F)F)cc3Cl)c2n1          clearance     µL/min/mg           51
4  COc1ccc(-n2ncc3c(NC(C4CC4)C4CC4)nc(C)nc32)c(C)c1          clearance     µL/min/mg           25

Alright, here's another compound for you.
Quick one: clearance for Cc1nc(NC(C2CC2)C2CC2)c2nc(C)n(-c3ccc(C#N)cc3)c2n1 ?
22

###

Tested on: Liver microsomes
Assay: Intrinsic clearance in rat liver microsomes assessed per mg of protein
Format: ADME, Microsome
quantity_measured: clearance (µL/min/mg)
Write the number in µL/min/mg without appending the unit.

Below: 4 compounds and their reported clearance.
>>> df
                                        smi  quantity_measured  assay_value
0  COc1ccc(-n2c(C)nc3c(NC(C4CC4)C4CC4)nc(C)nc32)c(C)c1          clearance           37
1  Cc1nc(NC(C2CC2)C2CC2)c2nc(C)n(-c3ccc(OC(F)F)cc3)c2n1          clearance           17
2  COc1ccc(-n2cnc3c(NC(C4CC4)C4CC4)nc(C)nc32)c(C)c1          clearance           48
3  Cc1nc(NC(C2CC2)C2CC2)c2nc(C)n(-c3ccc(OC(F)(F)F)cc3)c2n1          clearance           27

Alright, here's another compound for you.
Please provide the recorded clearance for CCOc1ccc(-n2c(C)nc3c(NC(C4CC4)C4CC4)nc(C)nc32)cc1 , tested on Liver microsomes.
29
